B1: 2M8U (parent)
chain: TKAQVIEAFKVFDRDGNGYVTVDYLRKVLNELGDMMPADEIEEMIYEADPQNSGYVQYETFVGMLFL

Variants of: B1
method summary: folding stability dG (cDNA display proteolysis); higher = more stable
experimental setup: PBS, room temperature
assay metric: folding stability dG

Task: Which folding stability dG is listed for `TKAQVIEAFKVFDRDGNGYVTVDYLRKVLNELGDMMPADEIEEMIYEADPQQSGYVQYETFVGMLFL` ?
Output: 3.47 kcal/mol

Task: Same question for `HKAQVIEAFKVFDRDGNGYVTVDYLRKVLNELGDMMPADEIEEMIYEADPQNSGYVQYETFVGMLFL` please.
Output: 3.16 kcal/mol

Task: And the next one, `TKAQVIEAFKVFDRDGNEYVTVDYLRKVLNELGDMMPADEIEEMIYEADPQNSGYVQYETFVGMLFL` ?
Output: 2.38 kcal/mol

Task: Next up: `TKAQVIEAFKVFDRDGNGYVTVDYLRKVLNELGDMMPADEIEHMIYEADPQNSGYVQYETFVGMLFL`
Output: 4.05 kcal/mol

Task: Ok, now `TKAQVIEAFDVFDRDGNGYVTVDYLRKVLNELGDMMPADEIEEMIYEADPQNSGYVQYETFVGMLFL`
Output: 2.26 kcal/mol

Task: Lookup `TKAQVIEAFKVFDRDGNCYVTVDYLRKVLNELGDMMPADEIEEMIYEADPQNSGYVQYETFVGMLFL`
Output: 2.87 kcal/mol

Task: Then what about the variant `TKAQVIEAFKVFDRDGNGYVTVDYLRKVLNELGDMMPADEIEEMIYEADPQNSGYVQYETFVGVLFL` ?
Output: 3.03 kcal/mol

Task: Another variant to check: `LKAQVIEAFKVFDRDGNGYVTVDYLRKVLNELGDMMPADEIEEMIYEADPQNSGYVQYETFVGMLFL`
Output: 3.3 kcal/mol

Task: Entry to check: `TKAQVIEAFKVFDRDGNGYVTVSYLRKVLNELGDMMPADEIEEMIYEADPQNSGYVQYETFVGMLFL`
Output: 3.55 kcal/mol

Task: # iterate: `TKAQVIEAFKVFDRDGNGYVTVDYLRKVLNELGDMMPADEIEEMIQEADPQNSGYVQYETFVGMLFL`
Output: 3.66 kcal/mol

Task: Item: `TKAQVIEAFKVFDRDGNGYVTVAYLRKVLNELGDMMPADEIEEMIYEADPQNSGYVQYETFVGMLFL`
Output: 3.58 kcal/mol

Attribution: the MegaScale stability set (Tsuboyama et al. 2023)
